- study.system: 5-hydroxytryptamine receptor 1A (Rattus norvegicus, UniProt P19327)
- Sequence (P19327 whole entry): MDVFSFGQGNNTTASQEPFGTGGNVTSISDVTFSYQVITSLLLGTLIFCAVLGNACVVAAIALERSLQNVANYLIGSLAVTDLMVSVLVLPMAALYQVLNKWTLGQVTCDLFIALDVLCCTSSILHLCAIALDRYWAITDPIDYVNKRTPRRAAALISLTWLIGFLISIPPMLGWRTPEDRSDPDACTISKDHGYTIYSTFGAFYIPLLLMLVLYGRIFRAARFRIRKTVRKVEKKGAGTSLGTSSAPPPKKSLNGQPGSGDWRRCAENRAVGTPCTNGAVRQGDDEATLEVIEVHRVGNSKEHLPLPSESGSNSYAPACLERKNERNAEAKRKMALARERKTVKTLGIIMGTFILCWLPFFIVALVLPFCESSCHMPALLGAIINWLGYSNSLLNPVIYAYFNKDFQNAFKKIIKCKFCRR
measurement.type: Ki (nM)

COc1ccccc1N1CCN(CCNC(=O)[C@@H]2CCCN2C(=O)C23CC4CC(CC(C4)C2)C3)CC1
350

[a] COc1ccccc1N1CCN(CCNC(=O)[C@@H]2CCCN2C(C)=O)CC1
[b] COc1ccccc1N1CCN(CCN2C(=O)CC(C3CCCCC3)C2=O)CC1 (stereo not given)
[c] COc1ccccc1N1CCN(CCCN2C(=O)C[C@H](NC(=O)C34CC5CC(CC(C5)C3)C4)C2=O)CC1
[d] COc1ccccc1N1CCN(CCCNC(=O)[C@@H]2CCCN2C(C)=O)CC1
**Q:** Ascending by Ki, please. Response field: labels, in requested order.
**A:** b, c, d, a
